System: normal human melanocytes
MEASUREMENT NOTES: Depigmenting activity (reduction of melanin production) in normal human melanocytes in vitro
Assay type: cell-based
CONDITION SUMMARY: run 1, 72 hours incubation, optical density (melanin)
Listed here are compounds together with their documented % Depigmentation at 100 μM (run 1).
Phrase the answer as number then unit, nothing more needed.

Sample records with % Depigmentation at 100 μM (run 1):
>  <COMPOUND>
NC(=O)CCNC(=O)C(O)[C@@H]1O[C@H](CO)[C@@H](O)[C@H](O)C1O (stereo partly shown)

>  <% Depigmentation at 100 μM (run 1)>
34%

$$$$
>  <COMPOUND>
O=C(O)c1ccc(NC(=O)C(O)C2O[C@H](CO)[C@@H](O)[C@H](O)[C@H]2O)cc1O (stereo partly shown)

>  <% Depigmentation at 100 μM (run 1)>
13%

$$$$
>  <COMPOUND>
NC(=O)[C@@H](CO)NC(=O)C(O)[C@@H]1O[C@H](CO)[C@@H](O)[C@H](O)C1O (stereo partly shown)

>  <% Depigmentation at 100 μM (run 1)>
31%

$$$$
>  <COMPOUND>
NC(=O)CNC(=O)C(O)[C@@H]1O[C@H](CO)[C@@H](O)[C@H](O)C1O (stereo partly shown)

>  <% Depigmentation at 100 μM (run 1)>
19%

$$$$
>  <COMPOUND>
NC(=O)C1CCCN1C(=O)C(O)[C@@H]1O[C@H](CO)[C@@H](O)C(O)C1O (stereo partly shown)

>  <% Depigmentation at 100 μM (run 1)>
29%

$$$$

Recorded % Depigmentation at 100 μM (run 1) for NC(=O)[C@@H](CO)NC(=O)C(O)[C@@H]1OC[C@@H](O)[C@H](O)C1O (single isomer, unassigned) , please?
28%

Quick one: % Depigmentation at 100 μM (run 1) for NC(=O)CNC(=O)C(O)[C@@H]1OC[C@@H](O)[C@H](O)C1O (stereo partly shown) ?
20%
